# experimental target: hVR1 (Homo sapiens, UniProt Q8NER1)
# Construct: R710-07 (T-REx host cell line); host or cells: T-REx System cell line, called 'human keratinocyte cell line' and 'HEK 293 cells'
# Sequence (Q8NER1 whole entry): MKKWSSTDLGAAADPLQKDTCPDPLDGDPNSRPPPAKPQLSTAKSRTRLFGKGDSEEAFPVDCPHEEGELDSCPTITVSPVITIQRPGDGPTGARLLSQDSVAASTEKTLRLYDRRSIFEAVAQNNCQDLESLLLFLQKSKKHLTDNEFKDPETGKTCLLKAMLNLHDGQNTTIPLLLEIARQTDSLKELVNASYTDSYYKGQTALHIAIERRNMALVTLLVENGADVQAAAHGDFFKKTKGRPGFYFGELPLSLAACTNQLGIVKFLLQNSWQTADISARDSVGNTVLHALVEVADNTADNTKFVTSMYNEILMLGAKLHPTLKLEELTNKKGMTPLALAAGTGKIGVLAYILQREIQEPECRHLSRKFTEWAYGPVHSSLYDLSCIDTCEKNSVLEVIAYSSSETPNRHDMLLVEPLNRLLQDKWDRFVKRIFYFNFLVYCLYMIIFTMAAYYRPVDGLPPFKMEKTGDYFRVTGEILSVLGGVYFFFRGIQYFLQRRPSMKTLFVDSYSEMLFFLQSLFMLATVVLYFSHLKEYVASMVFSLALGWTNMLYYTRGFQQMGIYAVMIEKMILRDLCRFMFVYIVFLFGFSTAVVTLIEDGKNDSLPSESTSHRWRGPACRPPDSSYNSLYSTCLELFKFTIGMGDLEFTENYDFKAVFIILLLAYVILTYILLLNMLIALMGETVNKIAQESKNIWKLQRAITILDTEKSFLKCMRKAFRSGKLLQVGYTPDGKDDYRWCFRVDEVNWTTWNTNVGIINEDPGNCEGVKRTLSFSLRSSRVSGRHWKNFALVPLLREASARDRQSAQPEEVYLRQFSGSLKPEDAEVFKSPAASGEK
# experimental protocol: Determination of pA2 values against capsaicin stimulation (Ca2+ imaging, Schild analysis)
# Format: cell-based
value kind: Kb (nM)

C[C@@H](NC(=O)[C@@H]1CCc2nc(C(C)(C)C(F)(F)F)ccc2C1)c1ccc2[nH]ncc2c1 : 1.79
CC1(C(=O)Nc2cnc3sc(CO)nc3c2)CCc2nc(C(C)(C)C(F)(F)F)ccc2C1 (centres unmarked) : 69.2
CC(C)(c1ccc2c(n1)CC[C@@H](C(=O)Nc1cnc3c(c1)COCC3)C2)C(F)(F)F (single isomer, unassigned) : 32
CC(C)(c1ccc2c(n1)CC[C@@H](C(=O)Nc1cnc3ccccc3c1)C2)C(F)(F)F : 22.9
CC(=O)N1CCc2ccc(NC(=O)[C@@H]3CCc4nc(C(C)(C)C(F)(F)F)ccc4C3)cc21 : 5.91

1: CC(C)(c1ccc2c(n1)CC[C@H](C(=O)Nc1cnc3c(c1)COCC3)C2)C(F)(F)F (single isomer, unassigned)
2: CC(C)(c1ccc2c(n1)CC[C@@H](C(=O)Nc1cnc3sc(CO)nc3c1)C2)C(F)(F)F
3: C[C@@H](NC(=O)[C@H]1CCc2nc(C(C)(C)C(F)(F)F)ccc2C1)c1ccc2[nH]ncc2c1
4: O=C(Nc1cnc2sc(CO)nc2c1)[C@H]1COc2cc(C(F)(F)F)ccc2O1
Exercise: Arrange the 4 compounds by rising Kb, starting with the smallest. # format: label list in the order the request specifies
Solution: 3, 2, 1, 4
(3: 0.208 nM, 2: 5.05 nM, 1: 17 nM, 4: 422 nM)

a: CC(NC(=O)C1CCc2nc(C(C)(C)C(F)(F)F)ccc2C1)c1ccc2[nH]ncc2c1 (centres unmarked)
b: CC(NC(=O)C1CN(C)c2cc(C(F)(F)F)ccc2O1)c1ccc2[nH]ncc2c1 (mixture of isomers)
Exercise: Just tell me: smaller Kb value, a or b ? Lab note: record the label of whichever item you select.
Solution: a

====

# experimental target: hVR1 (Homo sapiens)
# Construct: R710-07 (T-REx host cell line); host or cells: T-REx System cell line, called 'human keratinocyte cell line' and 'HEK 293 cells'
# experimental protocol: Calcium uptake assay (FLIPR), inhibition of low pH (proton)-induced calcium influx
# Assay type: cell-based
# condition: agonist protons, low pH solution pH 5.7; cells expressing hVR1
value kind: IC50 (nM)

Past entries and their recorded results:
CC(NC(=O)[C@H]1COc2cc(C(C)(C)C)ccc2O1)c1ccc2[nH]ncc2c1 (single isomer, unassigned) [Compound 7] : 226
O=C(Nc1cnc2sc(CO)nc2c1)[C@H]1COc2cc(C(F)(F)F)ccc2O1 [Compound 16] : 571
CC(C)(C)c1ccc2c(c1)OC(C(=O)Nc1cnc3sc(CO)nc3c1)CO2 (stereo not shown) [Compound 8] : 8
CC(C)(c1ccc2c(n1)CC[C@@H](C(=O)Nc1cnc3sc(CO)nc3c1)C2)C(F)(F)F [Compound 15] : 18

A: CC(C)(c1ccc2c(n1)CC[C@@H](C(=O)Nc1cnc3c(c1)COCC3)C2)C(F)(F)F (single isomer, unassigned) [Compound 18]
B: O=C(NCc1ccnc2ccccc12)C1=Cc2cc(OC(F)(F)F)ccc2OC1 [Compound 4]
C: CC(=O)N1CCc2ccc(NC(=O)[C@@H]3CCc4nc(C(C)(C)C(F)(F)F)ccc4C3)cc21 [Compound 23]
Exercise: Arrange these 3 compounds in increasing order of IC50. Give the order by naming the labels one after another as requested.
Solution: C, A, B
(C: 9 nM, A: 18 nM, B: 108 nM)
